IC50: recorded values
Biological target: Phosphatidylinositol 4,5-bisphosphate 3-kinase catalytic subunit beta isoform (Homo sapiens, UniProt P42338)
Sequence (P42338 whole entry, canonical isoform): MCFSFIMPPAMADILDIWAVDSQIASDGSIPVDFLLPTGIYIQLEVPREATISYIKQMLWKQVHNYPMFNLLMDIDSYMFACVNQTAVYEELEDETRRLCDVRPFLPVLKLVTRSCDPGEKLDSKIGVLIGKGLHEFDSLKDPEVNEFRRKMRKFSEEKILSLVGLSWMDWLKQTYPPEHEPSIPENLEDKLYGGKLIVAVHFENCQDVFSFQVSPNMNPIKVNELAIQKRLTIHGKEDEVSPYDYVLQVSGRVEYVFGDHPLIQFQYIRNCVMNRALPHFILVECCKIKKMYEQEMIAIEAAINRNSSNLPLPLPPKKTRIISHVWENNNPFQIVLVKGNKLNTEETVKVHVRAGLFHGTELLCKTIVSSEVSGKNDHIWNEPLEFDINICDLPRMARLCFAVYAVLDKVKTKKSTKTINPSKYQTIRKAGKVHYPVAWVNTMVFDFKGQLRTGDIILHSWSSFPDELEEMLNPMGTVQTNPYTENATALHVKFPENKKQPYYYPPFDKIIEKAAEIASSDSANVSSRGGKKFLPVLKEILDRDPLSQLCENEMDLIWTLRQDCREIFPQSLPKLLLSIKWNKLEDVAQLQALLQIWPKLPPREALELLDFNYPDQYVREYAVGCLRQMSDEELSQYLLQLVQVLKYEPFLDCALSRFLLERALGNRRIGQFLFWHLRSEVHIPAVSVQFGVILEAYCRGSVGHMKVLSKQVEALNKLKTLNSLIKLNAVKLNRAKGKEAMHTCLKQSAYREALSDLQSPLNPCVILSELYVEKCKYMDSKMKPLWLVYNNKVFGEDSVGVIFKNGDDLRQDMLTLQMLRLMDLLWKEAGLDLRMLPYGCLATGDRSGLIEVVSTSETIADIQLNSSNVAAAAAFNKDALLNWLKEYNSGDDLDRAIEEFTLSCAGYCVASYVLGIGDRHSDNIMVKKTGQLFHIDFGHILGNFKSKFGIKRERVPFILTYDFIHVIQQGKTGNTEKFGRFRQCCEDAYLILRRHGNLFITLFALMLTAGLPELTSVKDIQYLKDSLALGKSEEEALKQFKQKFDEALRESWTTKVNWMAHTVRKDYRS
Assay: Inhibition of PI3Kbeta (unknown origin) using biotin-PIP3 as substrate preincubated for 15 mins followed by substrate addition and measured after 60 mins by fluorescence polarization assay

{"molecule": "CN(C1CCN(Cc2cc3nc(-c4cccc5[nH]ncc45)nc(N4CCOCC4)c3s2)CC1)S(C)(=O)=O", "unitDescriptor": "nM", "IC50": 5010}
{"molecule": "CN(C1CCN(Cc2cc3nc(-c4cnc(N)nc4)nc(N4CCOCC4)c3s2)C1)S(C)(=O)=O (racemic)", "unitDescriptor": "nM", "IC50": 251}
{"molecule": "CC(=O)N(C)[C@@H]1CCN(Cc2cc3nc(-c4cnc(N)nc4)nc(N4CCOCC4)c3s2)C1", "unitDescriptor": "nM", "IC50": 398}
{"molecule": "CNC(=O)NC1CCN(Cc2cc3nc(-c4cnc(N)nc4)nc(N4CCOCC4)c3s2)C1 (racemic)", "unitDescriptor": "nM", "IC50": 1000}
{"molecule": "CN(C1CCCN(Cc2cc3nc(-c4cccc5[nH]ccc45)nc(N4CCOCC4)c3s2)C1)S(C)(=O)=O (racemic)", "unitDescriptor": "nM", "IC50": 1580}
{"molecule": "CN(C1CCN(Cc2cc3nc(-c4cccc5[nH]ncc45)nc(N4CCOCC4)c3s2)C1)S(C)(=O)=O (racemic)", "unitDescriptor": "nM", "IC50": 1580}
{"molecule": "CNC(=O)N(C)C1CCN(Cc2cc3nc(-c4cccc5[nH]ncc45)nc(N4CCOCC4)c3s2)C1 (racemic)", "unitDescriptor": "nM", "IC50": 1580}
{"molecule": "CN(C1CCCN(Cc2cc3nc(-c4cccc5[nH]ncc45)nc(N4CCOCC4)c3s2)C1)S(C)(=O)=O (racemic)", "unitDescriptor": "nM", "IC50": 2510}
{"molecule": "COCC(=O)NC1CCN(Cc2cc3nc(-c4cccc5[nH]ccc45)nc(N4CCOCC4)c3s2)C1 (racemic)", "unitDescriptor": "nM", "IC50": 1000}
{"molecule": "CNC(=O)NC1CCCN(Cc2cc3nc(-c4cccc5[nH]ccc45)nc(N4CCOCC4)c3s2)C1 (racemic)", "unitDescriptor": "nM", "IC50": 2510}
{"molecule": "CS(=O)(=O)NC1CCCN(Cc2cc3nc(-c4cccc5[nH]ncc45)nc(N4CCOCC4)c3s2)C1 (racemic)", "unitDescriptor": "nM", "IC50": 7940}
{"molecule": "COCC(=O)NC1CCCN(Cc2cc3nc(-c4cccc5[nH]ccc45)nc(N4CCOCC4)c3s2)C1 (racemic)", "unitDescriptor": "nM", "IC50": 6310}

###

Target: Phosphatidylinositol 4,5-bisphosphate 3-kinase catalytic subunit delta isoform (Homo sapiens)
Sequence (O00329 whole entry, canonical isoform): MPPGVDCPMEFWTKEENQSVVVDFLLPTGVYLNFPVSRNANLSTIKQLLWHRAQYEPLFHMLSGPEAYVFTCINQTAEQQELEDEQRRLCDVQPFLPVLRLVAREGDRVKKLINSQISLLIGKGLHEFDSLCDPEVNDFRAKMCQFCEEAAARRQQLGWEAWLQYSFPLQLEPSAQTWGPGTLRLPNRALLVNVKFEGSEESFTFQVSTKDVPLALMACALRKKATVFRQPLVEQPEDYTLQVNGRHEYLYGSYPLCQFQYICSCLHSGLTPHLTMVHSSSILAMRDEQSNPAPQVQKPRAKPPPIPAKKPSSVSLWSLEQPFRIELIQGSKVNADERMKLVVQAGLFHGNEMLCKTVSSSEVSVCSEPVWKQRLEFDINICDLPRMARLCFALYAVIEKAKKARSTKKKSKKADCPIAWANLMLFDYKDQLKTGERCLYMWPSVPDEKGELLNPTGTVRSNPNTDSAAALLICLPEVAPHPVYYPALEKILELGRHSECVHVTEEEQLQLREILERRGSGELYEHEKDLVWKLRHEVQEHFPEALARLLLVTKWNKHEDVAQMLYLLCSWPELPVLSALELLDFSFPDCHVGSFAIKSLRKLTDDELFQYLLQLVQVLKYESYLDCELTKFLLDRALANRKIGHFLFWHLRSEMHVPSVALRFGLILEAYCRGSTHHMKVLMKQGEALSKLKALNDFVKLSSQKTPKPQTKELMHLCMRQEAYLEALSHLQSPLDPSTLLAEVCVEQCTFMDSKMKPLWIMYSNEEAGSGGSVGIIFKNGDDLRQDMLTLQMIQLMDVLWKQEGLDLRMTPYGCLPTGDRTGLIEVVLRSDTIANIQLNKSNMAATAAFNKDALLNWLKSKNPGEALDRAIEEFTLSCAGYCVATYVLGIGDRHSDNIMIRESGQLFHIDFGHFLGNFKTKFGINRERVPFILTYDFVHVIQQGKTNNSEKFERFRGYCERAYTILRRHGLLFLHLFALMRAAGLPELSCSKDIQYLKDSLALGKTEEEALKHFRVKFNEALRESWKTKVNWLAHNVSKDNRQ
pIC50: −log10 of the molar value.
pIC50: recorded values

{"compound": "CNC(=O)NC1CCN(Cc2cc3nc(-c4cccc5[nH]ncc45)nc(N4CCOCC4)c3s2)CC1", "pIC50": 7.00}
{"compound": "COCC(=O)N(C)C1CCN(Cc2cc3nc(-c4cccc5[nH]ccc45)nc(N4CCOCC4)c3s2)C1 (racemic)", "pIC50": 8.00}
{"compound": "COCC(=O)N(C)C1CCCN(Cc2cc3nc(-c4cccc5[nH]ccc45)nc(N4CCOCC4)c3s2)C1 (racemic)", "pIC50": 7.70}
{"compound": "CC(=O)NC1CCCN(Cc2cc3nc(-c4cccc5[nH]ccc45)nc(N4CCOCC4)c3s2)C1 (racemic)", "pIC50": 7.30}
{"compound": "COCC(=O)N(C)C1CCN(Cc2cc3nc(-c4cccc5[nH]ncc45)nc(N4CCOCC4)c3s2)C1 (racemic)", "pIC50": 7.10}
{"compound": "COCC(=O)N(C)C1CCN(Cc2cc3nc(-c4cccc5[nH]ccc45)nc(N4CCOCC4)c3s2)CC1", "pIC50": 7.90}

###

Target: Phosphatidylinositol 4,5-bisphosphate 3-kinase catalytic subunit gamma isoform (Homo sapiens, UniProt P48736)
Sequence (P48736 whole entry, canonical isoform): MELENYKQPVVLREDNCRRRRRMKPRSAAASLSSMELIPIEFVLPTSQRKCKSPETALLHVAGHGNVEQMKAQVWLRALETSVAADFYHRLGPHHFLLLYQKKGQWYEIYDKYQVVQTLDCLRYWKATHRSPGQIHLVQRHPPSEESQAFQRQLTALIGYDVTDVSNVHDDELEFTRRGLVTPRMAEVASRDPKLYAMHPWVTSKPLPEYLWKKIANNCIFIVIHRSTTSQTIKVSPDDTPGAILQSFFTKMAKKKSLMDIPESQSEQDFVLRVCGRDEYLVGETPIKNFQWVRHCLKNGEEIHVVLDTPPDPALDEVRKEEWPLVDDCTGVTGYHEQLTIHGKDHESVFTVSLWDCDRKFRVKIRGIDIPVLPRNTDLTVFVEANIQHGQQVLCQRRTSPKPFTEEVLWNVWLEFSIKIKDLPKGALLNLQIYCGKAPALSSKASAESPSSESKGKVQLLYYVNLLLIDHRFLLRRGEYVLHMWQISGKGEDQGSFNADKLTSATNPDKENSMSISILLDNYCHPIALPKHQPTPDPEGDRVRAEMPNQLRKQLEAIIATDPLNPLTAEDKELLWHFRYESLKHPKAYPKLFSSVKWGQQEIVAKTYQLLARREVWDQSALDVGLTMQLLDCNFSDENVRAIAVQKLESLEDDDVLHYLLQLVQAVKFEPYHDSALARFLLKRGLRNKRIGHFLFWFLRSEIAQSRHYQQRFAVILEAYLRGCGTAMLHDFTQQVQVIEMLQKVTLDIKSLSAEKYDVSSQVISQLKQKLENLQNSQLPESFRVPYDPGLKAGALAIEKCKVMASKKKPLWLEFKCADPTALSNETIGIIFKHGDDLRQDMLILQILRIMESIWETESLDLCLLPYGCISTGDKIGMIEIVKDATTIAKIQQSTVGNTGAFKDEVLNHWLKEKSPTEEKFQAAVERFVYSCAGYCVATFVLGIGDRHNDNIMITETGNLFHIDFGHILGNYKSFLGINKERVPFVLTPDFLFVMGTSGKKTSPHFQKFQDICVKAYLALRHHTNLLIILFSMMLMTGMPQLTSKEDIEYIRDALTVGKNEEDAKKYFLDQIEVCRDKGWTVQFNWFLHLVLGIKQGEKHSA
Checkbox rule: IC50 lower than 400 nM = Condition met; IC50 not lower than 400 nM = Condition not met.

{"compound": "CC(=O)N(C)C1CCN(Cc2cc3nc(-c4cnc(N)nc4)nc(N4CCOCC4)c3s2)CC1", "labelValue": "Condition met"}
{"compound": "COCC(=O)NC1CCN(Cc2cc3nc(-c4cnc(N)nc4)nc(N4CCOCC4)c3s2)CC1", "labelValue": "Condition met"}
{"compound": "CS(=O)(=O)NC1CCN(Cc2cc3nc(-c4cccc5[nH]ccc45)nc(N4CCOCC4)c3s2)C1 (racemic)", "labelValue": "Condition not met"}
{"compound": "CC(=O)N[C@H]1CCN(Cc2cc3nc(-c4cnc(N)nc4)nc(N4CCOCC4)c3s2)C1", "labelValue": "Condition met"}
{"compound": "CN(C1CCN(Cc2cc3nc(-c4cccc5[nH]ccc45)nc(N4CCOCC4)c3s2)C1)S(C)(=O)=O (racemic)", "labelValue": "Condition not met"}
{"compound": "CS(=O)(=O)NC1CCCN(Cc2cc3nc(-c4cccc5[nH]ncc45)nc(N4CCOCC4)c3s2)C1 (racemic)", "labelValue": "Condition not met"}
{"compound": "CS(=O)(=O)NC1CCN(Cc2cc3nc(-c4cccc5[nH]ncc45)nc(N4CCOCC4)c3s2)CC1", "labelValue": "Condition not met"}
{"compound": "CC(=O)N(C)C1CCCN(Cc2cc3nc(-c4cnc(N)nc4)nc(N4CCOCC4)c3s2)C1 (racemic)", "labelValue": "Condition met"}
{"compound": "COCC(=O)N(C)C1CCN(Cc2cc3nc(-c4cnc(N)nc4)nc(N4CCOCC4)c3s2)C1 (racemic)", "labelValue": "Condition met"}
{"compound": "COCC(=O)NC1CCCN(Cc2cc3nc(-c4cccc5[nH]ncc45)nc(N4CCOCC4)c3s2)C1 (racemic)", "labelValue": "Condition not met"}
{"compound": "CNC(=O)N(C)C1CCCN(Cc2cc3nc(-c4cnc(N)nc4)nc(N4CCOCC4)c3s2)C1 (racemic)", "labelValue": "Condition met"}
{"compound": "CNC(=O)NC1CCN(Cc2cc3nc(-c4cccc5[nH]ncc45)nc(N4CCOCC4)c3s2)C1 (racemic)", "labelValue": "Condition not met"}
{"compound": "COCC(=O)N(C)C1CCCN(Cc2cc3nc(-c4cccc5[nH]ncc45)nc(N4CCOCC4)c3s2)C1 (racemic)", "labelValue": "Condition not met"}
{"compound": "COCC(=O)NC1CCN(Cc2cc3nc(-c4cccc5[nH]ncc45)nc(N4CCOCC4)c3s2)C1 (racemic)", "labelValue": "Condition not met"}
{"compound": "CN(C1CCCN(Cc2cc3nc(-c4cccc5[nH]ccc45)nc(N4CCOCC4)c3s2)C1)S(C)(=O)=O (racemic)", "labelValue": "Condition not met"}
{"compound": "CNC(=O)NC1CCN(Cc2cc3nc(-c4cccc5[nH]ccc45)nc(N4CCOCC4)c3s2)C1 (racemic)", "labelValue": "Condition not met"}
{"compound": "CNC(=O)N(C)C1CCCN(Cc2cc3nc(-c4cccc5[nH]ccc45)nc(N4CCOCC4)c3s2)C1 (racemic)", "labelValue": "Condition not met"}
{"compound": "CNC(=O)NC1CCN(Cc2cc3nc(-c4cnc(N)nc4)nc(N4CCOCC4)c3s2)CC1", "labelValue": "Condition met"}
{"compound": "CN(C1CCN(Cc2cc3nc(-c4cnc(N)nc4)nc(N4CCOCC4)c3s2)C1)S(C)(=O)=O (racemic)", "labelValue": "Condition met"}
{"compound": "CC(=O)N(C)[C@@H]1CCN(Cc2cc3nc(-c4cnc(N)nc4)nc(N4CCOCC4)c3s2)C1", "labelValue": "Condition met"}

###

logD: recorded values
Experiment: Lipophilicity, logD of compound at pH 7.4 by HPLC-MS analysis
Settings: buffer

{"compound": "CC(=O)N(C)C1CCN(Cc2cc3nc(-c4cnc(N)nc4)nc(N4CCOCC4)c3s2)C1 (racemic)", "logD": 2.8}
{"compound": "CNC(=O)NC1CCN(Cc2cc3nc(-c4cccc5[nH]ccc45)nc(N4CCOCC4)c3s2)CC1", "logD": 3.6}
{"compound": "COCC(=O)N(C)C1CCN(Cc2cc3nc(-c4cccc5[nH]ncc45)nc(N4CCOCC4)c3s2)CC1", "logD": 3.8}
{"compound": "CS(=O)(=O)NC1CCN(Cc2cc3nc(-c4cccc5[nH]ncc45)nc(N4CCOCC4)c3s2)CC1", "logD": 3.8}
{"compound": "CC(=O)N(C)C1CCN(Cc2cc3nc(-c4cccc5[nH]ccc45)nc(N4CCOCC4)c3s2)C1 (racemic)", "logD": 4.5}

###

Molecular target: Phosphatidylinositol 4,5-bisphosphate 3-kinase catalytic subunit alpha isoform (Homo sapiens, UniProt P42336)
Sequence (P42336 whole entry, canonical isoform): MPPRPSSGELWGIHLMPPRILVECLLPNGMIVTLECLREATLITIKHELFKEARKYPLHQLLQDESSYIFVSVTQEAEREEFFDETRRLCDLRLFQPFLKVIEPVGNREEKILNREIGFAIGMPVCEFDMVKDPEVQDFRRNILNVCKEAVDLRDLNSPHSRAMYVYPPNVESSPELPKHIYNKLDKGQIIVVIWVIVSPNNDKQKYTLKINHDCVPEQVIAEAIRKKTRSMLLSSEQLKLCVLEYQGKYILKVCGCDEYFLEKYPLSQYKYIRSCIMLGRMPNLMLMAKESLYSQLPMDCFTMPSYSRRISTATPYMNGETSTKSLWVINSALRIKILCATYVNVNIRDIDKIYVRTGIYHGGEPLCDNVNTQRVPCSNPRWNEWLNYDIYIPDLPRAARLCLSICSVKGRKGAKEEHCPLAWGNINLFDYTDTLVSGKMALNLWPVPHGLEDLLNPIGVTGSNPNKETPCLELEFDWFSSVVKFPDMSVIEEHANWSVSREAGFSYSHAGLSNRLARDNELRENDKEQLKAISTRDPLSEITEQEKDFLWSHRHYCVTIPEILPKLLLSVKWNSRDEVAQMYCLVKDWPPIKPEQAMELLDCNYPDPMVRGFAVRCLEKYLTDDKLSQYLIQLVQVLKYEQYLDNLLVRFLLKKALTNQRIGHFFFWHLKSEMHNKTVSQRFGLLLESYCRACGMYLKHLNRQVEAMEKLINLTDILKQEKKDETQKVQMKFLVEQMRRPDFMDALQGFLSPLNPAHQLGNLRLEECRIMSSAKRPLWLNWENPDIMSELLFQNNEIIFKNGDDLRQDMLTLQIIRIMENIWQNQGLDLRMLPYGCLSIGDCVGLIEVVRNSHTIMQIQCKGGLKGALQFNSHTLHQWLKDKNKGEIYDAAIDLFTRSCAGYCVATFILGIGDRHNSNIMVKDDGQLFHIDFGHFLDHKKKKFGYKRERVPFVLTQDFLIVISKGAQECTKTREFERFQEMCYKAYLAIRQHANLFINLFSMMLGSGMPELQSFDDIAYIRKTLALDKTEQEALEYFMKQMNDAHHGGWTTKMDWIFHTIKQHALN
pIC50: −log10 of the molar value.
pIC50: recorded values

{"compound": "CC(=O)N(C)C1CCCN(Cc2cc3nc(-c4cccc5[nH]ncc45)nc(N4CCOCC4)c3s2)C1 (racemic)", "pIC50": 6.60}
{"compound": "CC(=O)NC1CCN(Cc2cc3nc(-c4cccc5[nH]ccc45)nc(N4CCOCC4)c3s2)CC1", "pIC50": 5.50}
{"compound": "CC(=O)N(C)C1CCN(Cc2cc3nc(-c4cccc5[nH]ncc45)nc(N4CCOCC4)c3s2)C1 (racemic)", "pIC50": 6.70}
{"compound": "COCC(=O)N(C)C1CCCN(Cc2cc3nc(-c4cccc5[nH]ccc45)nc(N4CCOCC4)c3s2)C1 (racemic)", "pIC50": 5.50}
{"compound": "CC(=O)N(C)C1CCCN(Cc2cc3nc(-c4cnc(N)nc4)nc(N4CCOCC4)c3s2)C1 (racemic)", "pIC50": 7.20}
{"compound": "COCC(=O)NC1CCN(Cc2cc3nc(-c4cccc5[nH]ccc45)nc(N4CCOCC4)c3s2)C1 (racemic)", "pIC50": 5.80}
